biological target: MSI-1 RRM1 (Homo sapiens, UniProt O43347 1-103); test: SPR; 1:1 model; NMR: 50 mM Tris-HCl, 140 mM NaCl, 1 mM EDTA, 1 mM protease inhibitors, pH 7.2 (RRM1: pH 7.5), 298 K; fluorescence quenching: 50 mM Tris pH 7.2, 140 mM NaCl, 1 mM EDTA; SPR: biotinylated RNA immobilised, buffer not in the material; conditions: protein: recombinant; label: biotin for SPR; unlabelled for NMR; single strand
Sequence (O43347 1-103): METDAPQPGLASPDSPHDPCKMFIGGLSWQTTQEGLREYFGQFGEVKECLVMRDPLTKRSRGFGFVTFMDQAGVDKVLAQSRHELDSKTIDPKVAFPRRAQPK
Value Kind: pKd
Convention used: pKd is expressed as -log10 of the molar concentration.

For orientation, consider the following solved cases.
Binder	Recorded Measurement
UUGAUAGUUAGCAGGU (ssRNA) [oligo-L3.2]	7.07
UUGUUAGUUACCCCUU (ssRNA) [oligo-L2]	7.33

With those in mind, consider the next binder.
For record UUGUUAGUUAUUAGUU (ssRNA) [oligo-L3] the listed pKd is 6.82
